Molecular target: T1, murine TIM-3 protein with hFc tag (mTIM-3-hFc protein) (mouse; human, UniProt Q8VIM0 29-191)
T1 construct: Made in HEK293 cells; also called mouse TIM-3 extracellular domain protein; not shown: human IgG Fc fragment (hFc) of the pCpC vector
T1 chain: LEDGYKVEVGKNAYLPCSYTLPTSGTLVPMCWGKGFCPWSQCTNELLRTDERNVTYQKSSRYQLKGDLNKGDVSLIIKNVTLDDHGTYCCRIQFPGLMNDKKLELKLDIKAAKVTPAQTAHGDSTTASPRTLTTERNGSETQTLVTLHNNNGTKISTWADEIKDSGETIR
Assay: ELISA, coated mTIM-3-hFc; antibody 0.0001 nM
Description: The amino acid sequence 22-200 of the extracellular domain of the human TIM-3 protein described in the step of Example 1 (as shown in SEQ ID NO. 71 in the sequence listing) was cloned into a pCpC vector having a human IgG Fc fragment (hFc), and transfected into HEK293 cells. […] An ELISA plate reader (TiterMax 384plus, Molecular Device) was used to read the A450 nm value.
Recorded OD450 values for a group of binders are listed next.
Could you keep your reply to the number by itself?

Worked cases, OD450 given:
So what does the record say about OD450 for 7A4F10 (TIM-3 antibody purified from hybridoma, chimeric antibody of Example 2) (antibody, V domains shown, From hybridoma of Harbour H2L2 transgenic mice: human variable regions, rat constant regions) VH: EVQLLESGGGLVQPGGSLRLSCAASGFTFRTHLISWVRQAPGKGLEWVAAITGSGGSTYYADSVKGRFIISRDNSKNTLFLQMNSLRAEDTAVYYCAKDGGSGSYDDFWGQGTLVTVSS VL: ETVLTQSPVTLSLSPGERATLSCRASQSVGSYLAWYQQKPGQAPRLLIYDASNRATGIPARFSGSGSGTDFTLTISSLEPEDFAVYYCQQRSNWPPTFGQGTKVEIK ? 0.65

Return reported OD450; argument: 57F4E5 (TIM-3 antibody purified from hybridoma, chimeric antibody of Example 2) (antibody, V domains shown, From hybridoma of Harbour H2L2 transgenic mice: human variable regions, rat constant regions) VH: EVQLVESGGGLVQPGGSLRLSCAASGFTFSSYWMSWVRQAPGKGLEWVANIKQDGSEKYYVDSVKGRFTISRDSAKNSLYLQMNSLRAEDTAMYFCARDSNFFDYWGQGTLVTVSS VL: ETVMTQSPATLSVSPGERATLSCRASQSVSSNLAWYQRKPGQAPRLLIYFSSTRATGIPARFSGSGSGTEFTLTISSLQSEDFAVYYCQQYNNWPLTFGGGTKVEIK 0.63

Request the reported OD450 associated with 18D2H2 (TIM-3 antibody purified from hybridoma, chimeric antibody of Example 2) (antibody, V domains shown, From hybridoma of Harbour H2L2 transgenic mice: human variable regions, rat constant regions) VH: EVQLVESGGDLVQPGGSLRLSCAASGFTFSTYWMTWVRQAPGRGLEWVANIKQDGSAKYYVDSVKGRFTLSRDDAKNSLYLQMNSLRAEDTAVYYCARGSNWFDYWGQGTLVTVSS VL: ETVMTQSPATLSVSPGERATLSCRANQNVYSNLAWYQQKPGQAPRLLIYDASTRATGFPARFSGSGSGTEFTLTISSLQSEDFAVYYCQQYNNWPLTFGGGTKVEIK 0.64

Fill blank: measured OD450 of the binder 39E5H1 (TIM-3 antibody purified from hybridoma, chimeric antibody of Example 2) (antibody, V domains shown, From hybridoma of Harbour H2L2 transgenic mice: human variable regions, rat constant regions) VH: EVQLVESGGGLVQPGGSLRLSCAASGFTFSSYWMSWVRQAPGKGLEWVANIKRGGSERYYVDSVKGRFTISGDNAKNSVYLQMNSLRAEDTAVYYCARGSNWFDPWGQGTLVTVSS VL: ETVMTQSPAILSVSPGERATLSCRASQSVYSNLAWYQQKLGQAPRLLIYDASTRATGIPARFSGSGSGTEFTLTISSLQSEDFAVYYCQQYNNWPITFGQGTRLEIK is ____. 0.64

# get_value(readout='OD450', item= 134H3G6 (TIM-3 antibody purified from hybridoma, chimeric antibody of Example 2) (antibody, V domains shown, From hybridoma of Harbour H2L2 transgenic mice: human variable regions, rat constant regions) VH: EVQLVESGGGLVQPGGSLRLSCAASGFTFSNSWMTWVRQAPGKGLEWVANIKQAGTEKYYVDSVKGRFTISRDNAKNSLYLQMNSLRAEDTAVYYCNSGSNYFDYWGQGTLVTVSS VL: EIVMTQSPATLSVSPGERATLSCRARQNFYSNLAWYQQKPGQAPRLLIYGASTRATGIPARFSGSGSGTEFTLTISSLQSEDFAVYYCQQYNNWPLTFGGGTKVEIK ) 0.64

---
So what does the record say about OD450 for 34B6D8 (TIM-3 antibody purified from hybridoma, chimeric antibody of Example 2) (antibody, V domains shown, From hybridoma of Harbour H2L2 transgenic mice: human variable regions, rat constant regions) VH: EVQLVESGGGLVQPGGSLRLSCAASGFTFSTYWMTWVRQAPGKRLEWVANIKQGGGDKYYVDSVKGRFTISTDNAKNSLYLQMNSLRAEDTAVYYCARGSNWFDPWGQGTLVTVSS VL: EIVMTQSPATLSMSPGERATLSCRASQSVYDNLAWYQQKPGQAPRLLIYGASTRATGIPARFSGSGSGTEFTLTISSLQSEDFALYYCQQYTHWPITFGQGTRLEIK ? 0.62
